Field: relative viability. Provide a value for each of the compounds that follow.
System: LC-2-ad
Assay protocol: relative viability (nuclei count vs DMSO), 5 days (fraction); higher = more cells survive
Setup conditions: first compound 0.03162 µM
# respond with the number and nothing more

Requested read-out: relative viability. Entry: CCN(CC)CCCCNc1ncc2cc(-c3cc(OC)cc(OC)c3)c(NC(=O)NC(C)(C)C)nc2n1 + COc1cc2c(Oc3ccc(NC(=O)C4(C(=O)Nc5ccc(F)cc5)CC4)cc3F)ccnc2cc1OCCCN1CCOCC1 [Foretinib] (partner 0.25 µM)
0.998

Requested read-out: relative viability. Entry: CCN(CC)CCCCNc1ncc2cc(-c3cc(OC)cc(OC)c3)c(NC(=O)NC(C)(C)C)nc2n1 + O=C(CCCCCCC(=O)Nc1ccccc1)NO [Vorinostat] (partner 1 µM)
0.798

Requested read-out: relative viability. Entry: CCN(CC)CCCCNc1ncc2cc(-c3cc(OC)cc(OC)c3)c(NC(=O)NC(C)(C)C)nc2n1 + O=C(c1cc(Cc2n[nH]c(=O)c3ccccc23)ccc1F)N1CCN(C(=O)C2CC2)CC1 [Olaparib] (partner 8 µM)
0.744

Requested read-out: relative viability. Entry: CCN(CC)CCCCNc1ncc2cc(-c3cc(OC)cc(OC)c3)c(NC(=O)NC(C)(C)C)nc2n1 + Nc1nc2[nH]cc(CCc3ccc(C(=O)N[C@@H](CCC(=O)O)C(=O)O)cc3)c2c(=O)[nH]1 [Pemetrexed] (partner 0.2 µM)
0.267

Requested read-out: relative viability. Entry: O=c1cc(N2CCOCC2)oc2c(-c3cccc4c3sc3ccccc34)cccc12 + N=C(N)NC(=N)NCCc1ccccc1 [Phenformin] (partner 250 µM)
0.592

Requested read-out: relative viability. Entry: CCN(CC)CCCCNc1ncc2cc(-c3cc(OC)cc(OC)c3)c(NC(=O)NC(C)(C)C)nc2n1 + CC(=O)c1c(C)c2cnc(Nc3ccc(N4CCNCC4)cn3)nc2n(C2CCCC2)c1=O [Palbociclib] (partner 0.5 µM)
0.486

Requested read-out: relative viability. Entry: O=c1cc(N2CCOCC2)oc2c(-c3cccc4c3sc3ccccc34)cccc12 + CC(=O)c1c(C)c2cnc(Nc3ccc(N4CCNCC4)cn3)nc2n(C2CCCC2)c1=O [Palbociclib] (partner 0.5 µM)
0.5

Requested read-out: relative viability. Entry: O=c1cc(N2CCOCC2)oc2c(-c3cccc4c3sc3ccccc34)cccc12 + Cc1cc(Nc2cc(N3CCN(C)CC3)nc(Sc3ccc(NC(=O)C4CC4)cc3)n2)n[nH]1 [Tozasertib] (partner 0.1 µM)
0.46

Requested read-out: relative viability. Entry: O=c1cc(N2CCOCC2)oc2c(-c3cccc4c3sc3ccccc34)cccc12 + COc1cccc2cc(-c3nc([C@H]4CC[C@H](C(=O)O)CC4)n4ncnc(N)c34)[nH]c12 [OSI-027] (partner 0.5 µM)
0.993

Requested read-out: relative viability. Entry: O=c1cc(N2CCOCC2)oc2c(-c3cccc4c3sc3ccccc34)cccc12 + NC(=O)Nc1cc(-c2cccc(F)c2)sc1C(=O)N[C@H]1CCCNC1 [AZD7762] (partner 0.2 µM)
0.777

* * *

Tested on: PC-3 [JPC-3]
Assay protocol: relative viability (nuclei count vs DMSO), 5 days (fraction); higher = more cells survive
Setup conditions: first compound 0.2 µM
Field: relative viability. Provide a value for each of the compounds that follow.
# respond with the number and nothing more

Requested read-out: relative viability. Entry: COCC1(CO)C(=O)C2CCN1CC2 (stereo not drawn) [PRIMA-1MET] + C[C@@H](Oc1cc(-c2cnn(C3CCNCC3)c2)cnc1N)c1c(Cl)ccc(F)c1Cl [Crizotinib] (partner 1 µM)
0.995

Requested read-out: relative viability. Entry: COCC1(CO)C(=O)C2CCN1CC2 (stereo not drawn) [PRIMA-1MET] + CC1(C)CCC(c2ccc(Cl)cc2)=C(CN2CCN(c3ccc(C(=O)NS(=O)(=O)c4ccc(N[C@H](CCN5CCOCC5)CSc5ccccc5)c(S(=O)(=O)C(F)(F)F)c4)cc3)CC2)C1 [Navitoclax] (partner 0.5 µM)
0.853

Requested read-out: relative viability. Entry: COCC1(CO)C(=O)C2CCN1CC2 (stereo not drawn) [PRIMA-1MET] + Cc1nc(Nc2ncc(C(=O)Nc3c(C)cccc3Cl)s2)cc(N2CCN(CCO)CC2)n1 [Dasatinib] (partner 0.075 µM)
0.977

These entries and their values trace back to the supplement of paper PMC10307832.
